EXPERIMENTAL_DETAILS: Bioluminescence emission spectra
Assay type: physicochemical
CONDITION_DETAILS: emission spectrum with native coelenterazine
OBSERVED_PROPERTY: Wavelength (nm) peak

MOLECULE	DATA_VALUE
C124A/L203R: RLuc mutant C124A/L203R (protein) MASKVYDPEQRKRMITGPQWWARCKQMNVLDSFINYYDSEKHAENAVIFLHGNAASSYLWRHVVPHIEPVARCIIPDLIGMGKSGKSGNGSYRLLDHYKYLTAWFELLNLPKKIIFVGHDWGAALAFHYSYEHQDKIKAIVHAESVVDVIESWDEWPDIEEDIALIKSEEGEKMVLENNFFVETMLPSKIMRKLEPEEFAAYREPFKEKGEVRRPTLSWPREIPLVKGGKPDVVQIVRNYNAYLRASDDLPKMFIESDPGFFSNAIVEGAKKFPNTEFVKVKGLHFSQEDAPDEMGKYIKSFVERVLKNEQ	484
